- TEST DESCRIPTION: self-splicing fitness, log relative to wild type (ln ratio); higher = more splicing; Tetrahymena group I intron in knt gene, E. coli kanamycin selection, DiMSum; sequences stand for … in CUCUCU…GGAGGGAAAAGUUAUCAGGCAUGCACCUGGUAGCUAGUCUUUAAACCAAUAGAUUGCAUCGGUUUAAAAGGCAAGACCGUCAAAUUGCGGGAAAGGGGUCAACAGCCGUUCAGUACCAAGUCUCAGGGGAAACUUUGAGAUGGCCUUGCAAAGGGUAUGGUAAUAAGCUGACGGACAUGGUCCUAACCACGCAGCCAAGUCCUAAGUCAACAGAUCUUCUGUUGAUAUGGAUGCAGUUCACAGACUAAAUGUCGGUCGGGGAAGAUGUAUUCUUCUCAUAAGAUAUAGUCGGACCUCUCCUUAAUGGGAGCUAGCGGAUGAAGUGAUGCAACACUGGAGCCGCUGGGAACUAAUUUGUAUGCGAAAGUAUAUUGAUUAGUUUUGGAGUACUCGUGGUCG;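 further: selection with 25 µg/mL kanamycin versus none on LB agar overnight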
- REPORTED CONDITIONS: 37 °C
OUTCOME MEASURE: self-splicing fitness (ln)

Answered examples (6):
polymer_sequence=CCAUAGCAAUAUUACGUCGU result=-2.82
polymer_sequence=AGCAAGCAAUAUUACGCAAU result=-1.41
polymer_sequence=AUUAAGCAAUAUUACGAGGG result=-2.96
polymer_sequence=UAAUAGCAAUAUUACGAUGA result=-1.48
polymer_sequence=UAUAAGCAAUAUUACGUGCU result=-1.32
polymer_sequence=CGCUAGCAAUAUUACGCAUC result=-2.66

# input Report self-splicing fitness (ln) for `GGUUAGCAAUAUUACGUUCA`
# output -0.557

# input Tell us which self-splicing fitness (ln) value is on record for `UUCCAGCAAUAUUACGUCGC`
# output -1.23

----------
- TEST DESCRIPTION: self-splicing fitness, log relative to wild type (ln ratio); higher = more splicing; Tetrahymena group I intron in knt gene, E. coli kanamycin selection, DiMSum; sequences stand for … in CUCUCU…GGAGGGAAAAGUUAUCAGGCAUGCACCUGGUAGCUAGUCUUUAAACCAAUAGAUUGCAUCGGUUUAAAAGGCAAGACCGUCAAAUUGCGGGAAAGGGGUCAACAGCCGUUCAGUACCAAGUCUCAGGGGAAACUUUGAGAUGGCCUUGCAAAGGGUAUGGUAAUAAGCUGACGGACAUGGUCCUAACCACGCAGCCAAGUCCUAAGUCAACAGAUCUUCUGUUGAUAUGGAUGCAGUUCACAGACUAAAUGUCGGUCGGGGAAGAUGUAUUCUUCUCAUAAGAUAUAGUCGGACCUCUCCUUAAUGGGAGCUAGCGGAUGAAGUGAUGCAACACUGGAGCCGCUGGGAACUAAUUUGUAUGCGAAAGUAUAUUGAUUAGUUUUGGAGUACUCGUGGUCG
- REPORTED CONDITIONS: 37 °C
OUTCOME MEASURE: self-splicing fitness (ln)
Note: the reply should be a number with no unit written.

# example entries with known answers
polymer_sequence=CUCUAGCAAUAUUACGUCCC outcome_measure="self-splicing fitness (ln)" quantitative_result=-3.71
polymer_sequence=AACGAGCAAUAUUACGACGG outcome_measure="self-splicing fitness (ln)" quantitative_result=-2.04
polymer_sequence=ACGGAGCAAUAUUACGUAAU outcome_measure="self-splicing fitness (ln)" quantitative_result=-2.39
polymer_sequence=UGAUAGCAAUAUUACGUAAA outcome_measure="self-splicing fitness (ln)" quantitative_result=-1.64
polymer_sequence=GCAUAGCAAUAUUACGGUUC outcome_measure="self-splicing fitness (ln)" quantitative_result=-0.892
polymer_sequence=GGUAAGCAAUAUUACGAACG outcome_measure="self-splicing fitness (ln)" quantitative_result=-0.0489
polymer_sequence=UCUCAGCAAUAUUACGUCGG outcome_measure="self-splicing fitness (ln)" quantitative_result=-1.22
polymer_sequence=AUGGAGCAAUAUUACGUAUU outcome_measure="self-splicing fitness (ln)" quantitative_result=-2.21
polymer_sequence=GCCAAGCAAUAUUACGAUUG outcome_measure="self-splicing fitness (ln)" quantitative_result=-2.12
polymer_sequence=CGCCAGCAAUAUUACGGCAU outcome_measure="self-splicing fitness (ln)" quantitative_result=-0.458

# input Please give the documented self-splicing fitness (ln) of `UUAUAGCAAUAUUACGACGU`
# output -1.14

# input Please list self-splicing fitness (ln) recorded for the sequence `UGUUAGCAAUAUUACGACGA`
# output 0.253

# input Determine its reported self-splicing fitness (ln): `AGCCAGCAAUAUUACGCCAG`
# output -2.23

----------
- TEST DESCRIPTION: self-splicing fitness, log relative to wild type (ln ratio); higher = more splicing; Tetrahymena group I intron in knt gene, E. coli kanamycin selection, DiMSum; sequences stand for … in CUCUCU…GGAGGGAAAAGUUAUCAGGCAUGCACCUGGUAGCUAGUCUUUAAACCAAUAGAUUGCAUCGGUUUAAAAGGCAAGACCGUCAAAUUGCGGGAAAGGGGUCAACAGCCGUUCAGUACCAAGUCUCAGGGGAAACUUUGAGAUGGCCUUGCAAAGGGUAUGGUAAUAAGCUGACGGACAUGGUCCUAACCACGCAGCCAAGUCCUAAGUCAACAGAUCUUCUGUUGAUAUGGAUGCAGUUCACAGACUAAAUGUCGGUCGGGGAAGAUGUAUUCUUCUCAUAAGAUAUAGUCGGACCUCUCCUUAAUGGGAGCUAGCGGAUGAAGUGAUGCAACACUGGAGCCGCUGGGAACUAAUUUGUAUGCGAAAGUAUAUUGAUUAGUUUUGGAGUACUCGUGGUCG
- REPORTED CONDITIONS: 30 °C
Recorded self-splicing fitness (ln) values for a group of sequences are listed next.
Just the number, please, no unit attached.

Examples with answers:
polymer_sequence=AUAAAGCAAUAUUACGGUGC quantitative_result=-1.95
polymer_sequence=UGCAAGCAAUAUUACGAUGU quantitative_result=-2.73
polymer_sequence=AUGCAGCAAUAUUACGAAGC quantitative_result=-3.21
polymer_sequence=UAUGAGCAAUAUUACGUACU quantitative_result=-4.19
polymer_sequence=GAUCAGCAAUAUUACGUGUG quantitative_result=-0.908

# input Give self-splicing fitness (ln) for the following sequence: `UCAUAGCAAUAUUACGGGAA`
# output -1.35

----------
- TEST DESCRIPTION: self-splicing fitness, log relative to wild type (ln ratio); higher = more splicing; Tetrahymena group I intron in knt gene, E. coli kanamycin selection, DiMSum; sequences stand for … in CUCUCU…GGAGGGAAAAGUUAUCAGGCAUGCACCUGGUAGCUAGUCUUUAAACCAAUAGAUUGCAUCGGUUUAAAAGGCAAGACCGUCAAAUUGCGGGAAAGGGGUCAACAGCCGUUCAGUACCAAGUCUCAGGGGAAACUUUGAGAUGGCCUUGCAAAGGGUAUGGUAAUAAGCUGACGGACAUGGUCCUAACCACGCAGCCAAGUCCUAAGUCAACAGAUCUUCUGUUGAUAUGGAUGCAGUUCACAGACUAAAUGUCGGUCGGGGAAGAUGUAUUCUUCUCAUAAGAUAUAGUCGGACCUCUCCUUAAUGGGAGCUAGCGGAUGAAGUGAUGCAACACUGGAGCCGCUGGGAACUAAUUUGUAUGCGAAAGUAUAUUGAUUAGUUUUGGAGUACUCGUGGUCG
- REPORTED CONDITIONS: 37 °C
OUTCOME MEASURE: self-splicing fitness (ln)
Please give the numeric answer without any surrounding text.

polymer_sequence=GAGGAGCAAUAUUACGCGCG outcome_measure="self-splicing fitness (ln)" quantitative_result=-0.781
polymer_sequence=GGACAGCAAUAUUACGGCGC outcome_measure="self-splicing fitness (ln)" quantitative_result=0.203
polymer_sequence=CGUUAGCAAUAUUACGGUAC outcome_measure="self-splicing fitness (ln)" quantitative_result=-2.96
polymer_sequence=GGGAAGCAAUAUUACGUAGG outcome_measure="self-splicing fitness (ln)" quantitative_result=-0.93
polymer_sequence=UCCCAGCAAUAUUACGAGGC outcome_measure="self-splicing fitness (ln)" quantitative_result=-0.738

# input Specify self-splicing fitness (ln) for `CGUAAGCAAUAUUACGGUGG` and stop.
# output -1.25

# input Identify self-splicing fitness (ln) associated with the sequence `AGAAAGCAAUAUUACGAUCC`
# output 0.0529

----------
Quick reference: self-splicing fitness (ln) of the listed items.
- TEST DESCRIPTION: self-splicing fitness, log relative to wild type (ln ratio); higher = more splicing; Tetrahymena group I intron in knt gene, E. coli kanamycin selection, DiMSum; sequences stand for … in CUCUCU…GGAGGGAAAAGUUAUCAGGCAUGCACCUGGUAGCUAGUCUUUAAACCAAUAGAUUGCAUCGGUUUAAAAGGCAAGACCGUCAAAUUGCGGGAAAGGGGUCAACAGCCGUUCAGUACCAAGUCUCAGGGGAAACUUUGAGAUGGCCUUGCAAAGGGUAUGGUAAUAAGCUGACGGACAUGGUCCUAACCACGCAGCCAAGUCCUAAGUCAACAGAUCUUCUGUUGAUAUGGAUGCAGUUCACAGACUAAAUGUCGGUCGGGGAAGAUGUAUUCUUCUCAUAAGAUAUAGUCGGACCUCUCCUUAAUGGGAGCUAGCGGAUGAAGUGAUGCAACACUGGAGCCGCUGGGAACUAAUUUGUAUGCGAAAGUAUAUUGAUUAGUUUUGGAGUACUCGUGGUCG
- REPORTED CONDITIONS: 37 °C
Respond using a number only.

Here is how some sequences turned out for self-splicing fitness (ln).
polymer_sequence=UCUGAGCAAUAUUACGACGA quantitative_result=0.197
polymer_sequence=CCCGAGCAAUAUUACGUCAU quantitative_result=-2.99
polymer_sequence=AACGAGCAAUAUUACGUACG quantitative_result=-1.63
polymer_sequence=GCUUAGCAAUAUUACGCUCU quantitative_result=-0.504
polymer_sequence=CGGCAGCAAUAUUACGAUGC quantitative_result=-1.6
polymer_sequence=UCUUAGCAAUAUUACGGAAU quantitative_result=-1.93
polymer_sequence=AGAGAGCAAUAUUACGUGUA quantitative_result=-2.78
polymer_sequence=AAUAAGCAAUAUUACGUUGG quantitative_result=-3
polymer_sequence=GAGAAGCAAUAUUACGACUU quantitative_result=-1.14
polymer_sequence=UAAGAGCAAUAUUACGCAGA quantitative_result=-2.24

# input Indicate the recorded self-splicing fitness (ln) value for this sequence: `AAGCAGCAAUAUUACGAGGG`
# output -2.28

# input Name the recorded self-splicing fitness (ln) of the sequence listed here: `AUGAAGCAAUAUUACGCUAU`
# output -1.21

# input Supply self-splicing fitness (ln) value. Item: `GGGGAGCAAUAUUACGGCUC`
# output -0.173

# input Give self-splicing fitness (ln) for the following sequence: `GGCAAGCAAUAUUACGCGAC`
# output -2.23

# input Consider the sequence `UGACAGCAAUAUUACGGGAA` . State its measured self-splicing fitness (ln).
# output -0.827

# input Look up and state reported self-splicing fitness (ln) for `GCGUAGCAAUAUUACGCGCA`
# output -1.07

# input Look up and state reported self-splicing fitness (ln) for `CUAAAGCAAUAUUACGAUGC`
# output -3.1

# input Indicate its recorded self-splicing fitness (ln); the sequence in question is `CGAGAGCAAUAUUACGUUAU`
# output -2.8

# input Give me measured self-splicing fitness (ln), please, for this sequence: `GUCUAGCAAUAUUACGCAUA`
# output -0.121

# input Retrieve self-splicing fitness (ln) measured for `GGGUAGCAAUAUUACGUCCG` and print it.
# output -0.15

# input Give the value of self-splicing fitness (ln) reported for the following: `UGACAGCAAUAUUACGCUGG`
# output -1.92

# input Give the reported value of self-splicing fitness (ln) for this record: `CCAGAGCAAUAUUACGCGAA`
# output -2.15

# input Give self-splicing fitness (ln) for `AGACAGCAAUAUUACGUCAU`
# output -2.17

# input Find the measured self-splicing fitness (ln) of `CGUAAGCAAUAUUACGAUCA` and report it.
# output -0.755

# input Provide self-splicing fitness (ln) value for the following sequence: `ACGAAGCAAUAUUACGAACA`
# output -0.229

# input Specify self-splicing fitness (ln) for `UGACAGCAAUAUUACGCGGU` and stop.
# output -2.68
